Values compiled from ChEMBL document CHEMBL6153118.

assay: MRT (0 to t) in C57/6J mouse at 20 mg/kg, po measured for 24 hrs; format: ADME, organism-based; conditions: in vivo
recordedEndpoint: MRT last at 24 h (h)
Hi! Could you send only the number? It should be in h, unit omitted.

(Q) Return reported MRT last at 24 h; argument: `OC[C@H]1O[C@@H](O[C@@H]2OC=C[C@H]3[C@H](O)[C@@H]4O[C@]4(COc4ccc(C(F)(F)F)cc4)[C@@H]23)[C@H](O)[C@@H](O)[C@@H]1O`
(A) 2.43

====

experiment: Metabolic stability in mouse liver microsomes assessed as half life measured for 5 to 60 mins in presence of NADPH by LC-MS/MS analysis; assay type: ADME, Microsome; conditions: time 5-60 min
recordedEndpoint: half-life (h)
Hi! Could you send only the number? It should be in h, unit omitted.

(Q) Return reported half-life; argument: O=C(O)Cc1ccccc1Nc1c(Cl)cccc1Cl [DICLOFENAC]
(A) 1.1

====

test: Cmax in C57/6J mouse at 20 mg/kg, po measured for 24 hrs; format: ADME, organism-based; settings: in vivo
recordedEndpoint: Cmax (ng/mL)
Hi! Could you send only the number? It should be in ng/mL, unit omitted.

(Q) Return reported Cmax; argument: `OC[C@H]1O[C@@H](O[C@@H]2OC=C[C@H]3[C@H](O)[C@@H]4O[C@]4(COc4ccc(C(F)(F)F)cc4)[C@@H]23)[C@H](O)[C@@H](O)[C@@H]1O`
(A) 505

====

target: CYP2C9 (Homo sapiens, UniProt P11712); experiment: Inhibition of CYP2C9 in human liver microsomes preincubated for 10 mins followed by NADPH addition measured after 10 mins by LC/MS/MS analysis relative to control; assay type: ADME, Microsome; conditions: time 20 min
Sequence (P11712 whole entry): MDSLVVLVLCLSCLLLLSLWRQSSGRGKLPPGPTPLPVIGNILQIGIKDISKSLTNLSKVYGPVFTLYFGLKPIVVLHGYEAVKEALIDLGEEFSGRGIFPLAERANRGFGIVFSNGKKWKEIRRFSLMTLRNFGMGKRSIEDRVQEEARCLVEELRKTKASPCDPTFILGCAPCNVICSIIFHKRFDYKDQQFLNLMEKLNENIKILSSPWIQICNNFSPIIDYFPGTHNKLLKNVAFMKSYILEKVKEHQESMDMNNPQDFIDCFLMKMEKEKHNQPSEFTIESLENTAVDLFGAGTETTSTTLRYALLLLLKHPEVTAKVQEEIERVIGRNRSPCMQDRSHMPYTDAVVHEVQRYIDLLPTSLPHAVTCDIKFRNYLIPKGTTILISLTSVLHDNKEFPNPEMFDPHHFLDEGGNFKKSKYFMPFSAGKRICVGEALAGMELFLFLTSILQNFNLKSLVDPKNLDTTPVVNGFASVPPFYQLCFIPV
recordedEndpoint: inhibition at 10 min (%)
Hi! Could you send only the number? It should be in %, unit omitted.

(Q) Return reported inhibition at 10 min; argument: `OC[C@H]1O[C@@H](O[C@@H]2OC=C[C@H]3[C@H](O)[C@@H]4O[C@]4(COc4ccc(C(F)(F)F)cc4)[C@@H]23)[C@H](O)[C@@H](O)[C@@H]1O`
(A) 6.3

====

assay: Metabolic stability in human liver microsomes assessed as intrinsic clearance measured for 5 to 60 mins in presence of NADPH by LC-MS/MS analysis; format: ADME, Microsome; conditions: time 5-60 min, read-out: CLH
recordedEndpoint: CLint scaled (mL/min/kg)
Hi! Could you send only the number? It should be in mL/min/kg, unit omitted.

(Q) Return reported CLint scaled; argument: O=C(O)Cc1ccccc1Nc1c(Cl)cccc1Cl [DICLOFENAC]
(A) 202

====

target: CYP2C19 (Homo sapiens); assay: Inhibition of CYP2C19 in human liver microsomes preincubated for 10 mins followed by NADPH addition measured after 10 mins by LC/MS/MS analysis relative to control; format: ADME, Microsome; details: time 20 min
Sequence (P33261 whole entry): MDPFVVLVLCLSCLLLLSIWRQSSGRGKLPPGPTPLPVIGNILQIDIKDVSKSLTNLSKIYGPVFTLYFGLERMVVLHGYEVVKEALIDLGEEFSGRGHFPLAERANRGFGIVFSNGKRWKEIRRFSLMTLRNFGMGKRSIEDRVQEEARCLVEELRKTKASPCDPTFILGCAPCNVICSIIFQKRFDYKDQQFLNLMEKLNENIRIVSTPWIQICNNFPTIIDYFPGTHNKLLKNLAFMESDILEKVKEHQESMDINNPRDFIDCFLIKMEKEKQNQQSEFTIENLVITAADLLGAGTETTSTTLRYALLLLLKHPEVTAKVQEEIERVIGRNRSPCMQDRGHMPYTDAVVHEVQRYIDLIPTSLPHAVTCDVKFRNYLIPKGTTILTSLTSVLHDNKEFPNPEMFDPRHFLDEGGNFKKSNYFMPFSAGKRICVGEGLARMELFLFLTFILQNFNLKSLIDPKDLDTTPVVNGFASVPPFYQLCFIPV
recordedEndpoint: inhibition at 10 min (%)
Hi! Could you send only the number? It should be in %, unit omitted.

(Q) Return reported inhibition at 10 min; argument: `OC[C@H]1O[C@@H](O[C@@H]2OC=C[C@H]3[C@H](O)[C@@H]4O[C@]4(COc4ccc(C(F)(F)F)cc4)[C@@H]23)[C@H](O)[C@@H](O)[C@@H]1O`
(A) 10.2

====

target: CYP3A4 (Homo sapiens, UniProt P08684); test: Inhibition of CYP3A4 in human liver microsomes preincubated for 10 mins followed by NADPH addition measured after 10 mins by LC/MS/MS analysis relative to control; format: ADME, Microsome; details: time 20 min
Sequence (P08684 whole entry): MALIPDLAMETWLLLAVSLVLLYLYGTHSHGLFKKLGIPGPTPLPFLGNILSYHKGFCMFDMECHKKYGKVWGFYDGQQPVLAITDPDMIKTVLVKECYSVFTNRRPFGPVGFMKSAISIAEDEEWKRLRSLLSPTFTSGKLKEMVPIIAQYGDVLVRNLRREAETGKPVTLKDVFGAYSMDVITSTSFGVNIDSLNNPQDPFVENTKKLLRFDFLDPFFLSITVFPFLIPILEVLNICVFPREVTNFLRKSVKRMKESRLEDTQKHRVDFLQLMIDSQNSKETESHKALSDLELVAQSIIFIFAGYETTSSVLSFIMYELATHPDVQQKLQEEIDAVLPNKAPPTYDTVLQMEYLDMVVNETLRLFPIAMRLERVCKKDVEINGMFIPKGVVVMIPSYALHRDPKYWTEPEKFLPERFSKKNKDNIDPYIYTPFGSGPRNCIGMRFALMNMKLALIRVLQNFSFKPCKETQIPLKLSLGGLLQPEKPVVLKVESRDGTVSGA
recordedEndpoint: inhibition at 10 min
Kindly format the answer as number then unit.

(Q) Return reported inhibition at 10 min; argument: `OC[C@H]1O[C@@H](O[C@@H]2OC=C[C@H]3[C@H](O)[C@@H]4O[C@]4(COc4ccc(C(F)(F)F)cc4)[C@@H]23)[C@H](O)[C@@H](O)[C@@H]1O`
(A) 0.4%

====

target: CYP2D6 (Homo sapiens); assay: Inhibition of CYP2D6 in human liver microsomes preincubated for 10 mins followed by NADPH addition measured after 10 mins by LC/MS/MS analysis relative to control; type: ADME, Microsome; settings: time 20 min
Sequence (P10635 whole entry): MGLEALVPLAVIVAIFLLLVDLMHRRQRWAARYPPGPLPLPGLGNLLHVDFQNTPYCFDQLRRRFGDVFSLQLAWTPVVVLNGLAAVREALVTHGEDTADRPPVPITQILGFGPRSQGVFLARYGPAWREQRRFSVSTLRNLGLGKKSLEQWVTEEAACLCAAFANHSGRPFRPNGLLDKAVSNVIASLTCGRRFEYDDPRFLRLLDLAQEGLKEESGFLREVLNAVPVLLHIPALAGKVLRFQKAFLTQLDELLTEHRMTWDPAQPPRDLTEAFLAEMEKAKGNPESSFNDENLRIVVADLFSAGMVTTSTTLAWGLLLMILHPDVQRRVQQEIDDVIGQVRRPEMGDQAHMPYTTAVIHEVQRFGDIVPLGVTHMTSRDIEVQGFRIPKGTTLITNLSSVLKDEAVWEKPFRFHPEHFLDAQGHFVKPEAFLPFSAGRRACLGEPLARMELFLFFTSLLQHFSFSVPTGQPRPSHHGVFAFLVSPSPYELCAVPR
recordedEndpoint: inhibition at 10 min

(Q) Return reported inhibition at 10 min; argument: `OC[C@H]1O[C@@H](O[C@@H]2OC=C[C@H]3[C@H](O)[C@@H]4O[C@]4(COc4ccc(C(F)(F)F)cc4)[C@@H]23)[C@H](O)[C@@H](O)[C@@H]1O`
(A) 4.3%

====

assay: Cmax in C57/6J mouse at 5 mg/kg, iv measured for 24 hrs; type: ADME, organism-based; conditions: in vivo
recordedEndpoint: Cmax
Kindly format the answer as number then unit.

(Q) Return reported Cmax; argument: `OC[C@H]1O[C@@H](O[C@@H]2OC=C[C@H]3[C@H](O)[C@@H]4O[C@]4(COc4ccc(C(F)(F)F)cc4)[C@@H]23)[C@H](O)[C@@H](O)[C@@H]1O`
(A) 2710 ng/mL

====

system: H9c2; test: Cytoprotective activity against OGD-induced myocardial ischemic injury in rat H9c2 cells assessed as cell viability at 50 uM preincubated for 12 hrs followed by exposure to OGD condition for 3 hrs by CCK8 assay (reference value: 49.23 to 50.05 %); assay type: functional; settings: time 15 hrs, read-out: Activity
recordedEndpoint: viability at 50 µM (%)
Hi! Could you send only the number? It should be in %, unit omitted.

O=C(/C=C/c1ccccc1)NC[C@]12O[C@H]1[C@@H](O)[C@@H]1C=CO[C@@H](O[C@@H]3O[C@H](CO)[C@@H](O)[C@H](O)[C@H]3O)[C@@H]12 61.5
OC[C@H]1O[C@@H](O[C@@H]2OC=C[C@H]3[C@H](O)[C@@H]4O[C@]4(COc4cc(C(F)(F)F)cc(C(F)(F)F)c4)[C@@H]23)[C@H](O)[C@@H](O)[C@@H]1O 50.1
OC[C@H]1O[C@@H](O[C@@H]2OC=C[C@H]3[C@H](O)[C@@H]4O[C@]4(COc4ccc(C5CCCCC5)cc4)[C@@H]23)[C@H](O)[C@@H](O)[C@@H]1O 56.6
COc1ccc(OC[C@]23O[C@H]2[C@@H](O)[C@@H]2C=CO[C@@H](O[C@@H]4O[C@H](CO)[C@@H](O)[C@H](O)[C@H]4O)[C@@H]23)cc1 57.5

Kindly review the next molecule as well.
(Q) Observed viability at 50 µM on H9c2 for `COc1ccc(C(=O)NC[C@]23O[C@H]2[C@@H](O)[C@@H]2C=CO[C@@H](O[C@@H]4O[C@H](CO)[C@@H](O)[C@H](O)[C@H]4O)[C@@H]23)cc1OC` , please.
(A) 57.8

====

test: AUC (0 to t) in C57/6J mouse at 5 mg/kg, iv measured for 24 hrs; type: ADME, organism-based; conditions: in vivo
recordedEndpoint: AUC(0-t) at 24 h (ng·h/mL)
Hi! Could you send only the number? It should be in ng·h/mL, unit omitted.

(Q) Return reported AUC(0-t) at 24 h; argument: `OC[C@H]1O[C@@H](O[C@@H]2OC=C[C@H]3[C@H](O)[C@@H]4O[C@]4(COc4ccc(C(F)(F)F)cc4)[C@@H]23)[C@H](O)[C@@H](O)[C@@H]1O`
(A) 1090

====

Each entry below carries its recorded viability at 50 µM.
test system: H9c2; experiment: Cytoprotective activity against OGD-induced myocardial ischemic injury in rat H9c2 cells assessed as cell viability at 50 uM preincubated for 12 hrs followed by exposure to OGD condition for 3 hrs by CCK8 assay (reference value: 49.23 to 50.05 %); format: functional; settings: time 15 hrs, read-out: Activity
Hi! Could you send only the number? It should be in %, unit omitted.

Some entries whose results are on file:
molecule	measureUnit	viability at 50 µM
OC[C@H]1O[C@@H](O[C@@H]2OC=C[C@H]3[C@H](O)[C@@H]4O[C@]4(COc4ccc(F)cc4)[C@@H]23)[C@H](O)[C@@H](O)[C@@H]1O	%	64.6
O=C(NC[C@]12O[C@H]1[C@@H](O)[C@@H]1C=CO[C@@H](O[C@@H]3O[C@H](CO)[C@@H](O)[C@H](O)[C@H]3O)[C@@H]12)c1cccs1	%	60.4
O=C(NC[C@]12O[C@H]1[C@@H](O)[C@@H]1C=CO[C@@H](O[C@@H]3O[C@H](CO)[C@@H](O)[C@H](O)[C@H]3O)[C@@H]12)C1CCCCC1	%	61.3
OC[C@H]1O[C@@H](O[C@@H]2OC=C[C@H]3[C@H](O)[C@@H]4O[C@]4(COc4ccc5ccoc5c4)[C@@H]23)[C@H](O)[C@@H](O)[C@@H]1O	%	57
OC[C@H]1O[C@@H](O[C@@H]2OC=C[C@H]3[C@H](O)[C@@H]4O[C@]4(COc4ccccc4)[C@@H]23)[C@H](O)[C@@H](O)[C@@H]1O	%	60.5

Kindly review the next molecule as well.
(Q) Return reported viability at 50 µM; argument: `O=C(NC[C@]12O[C@H]1[C@@H](O)[C@@H]1C=CO[C@@H](O[C@@H]3O[C@H](CO)[C@@H](O)[C@H](O)[C@H]3O)[C@@H]12)c1ccncc1`
(A) 57.5
